measured_on: UniProt:P00746
Sequence (P00746 whole entry): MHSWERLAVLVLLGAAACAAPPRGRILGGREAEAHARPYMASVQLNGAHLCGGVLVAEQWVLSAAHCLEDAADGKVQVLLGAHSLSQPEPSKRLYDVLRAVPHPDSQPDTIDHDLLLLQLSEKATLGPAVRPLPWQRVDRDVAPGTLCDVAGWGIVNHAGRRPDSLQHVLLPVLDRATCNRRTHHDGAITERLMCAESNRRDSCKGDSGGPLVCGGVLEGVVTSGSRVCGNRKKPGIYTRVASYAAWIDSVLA
protocol_summary: Human Factor D Assay: Human Factor D (purified from human serum, Complement Technology, Inc.) at 80 nM final concentration is incubated with test compound at various concentrations for 5 min at room temperature in 50 mM Tris, 1M NaCl, pH 7.5. A synthetic substrate Z-L-Lys-SBzl and DTNB (Ellman's reagent) are added to final concentrations of 100 μM each. […] IC50 values are calculated by nonlinear regression of complement Factor D reaction rates as a function of test compound concentration.
This section presents molecules with their documented IC50 values.

CC(=O)c1nn(CC(=O)N2C[C@H](F)C[C@H]2C(=O)NCCOC(F)(F)F)c2ccc(-c3cnc(C)nc3)cc12; < 1000 nM

stdin: # get_value(readout='IC50', item= CC(=O)c1nn(CC(=O)N2C[C@H](F)C[C@H]2C(=O)O)c2ccc(-c3cnc(C)nc3)cc12 )
stdout: > 10000 nM

stdin: # get_value(readout='IC50', item= CC(=O)c1nn(CC(=O)N2C[C@H](F)C[C@H]2C(=O)Nc2cccc(-c3ccccc3Cl)c2F)c2ccc(N3C[C@H]4CCCC[C@H]4C3)cc12 )
stdout: < 1000 nM

stdin: # get_value(readout='IC50', item= Cc1cccc(CC(O)[C@@H]2C[C@@H](F)CN2C(=O)Cn2cc(C(N)=O)c3cc(-c4cnc5cc(C)nn5c4)ccc32)n1 (stereo partly specified) )
stdout: > 10000 nM

stdin: # get_value(readout='IC50', item= CC(=O)c1nn(CC(=O)N2C[C@H](F)C[C@H]2C(=O)NCCC(C)(C)C)c2ccc(-c3cnc(C)nc3)cc12 )
stdout: < 1000 nM

stdin: # get_value(readout='IC50', item= NC(=O)c1cc(-c2ccco2)n(CC(=O)N2C[C@H](F)C[C@H]2C(=O)Nc2cccc(Br)n2)n1 )
stdout: < 1000 nM
